Biological target: T1, human GIP receptor (human) (UniProt P48546)
T1 sequence (looked up): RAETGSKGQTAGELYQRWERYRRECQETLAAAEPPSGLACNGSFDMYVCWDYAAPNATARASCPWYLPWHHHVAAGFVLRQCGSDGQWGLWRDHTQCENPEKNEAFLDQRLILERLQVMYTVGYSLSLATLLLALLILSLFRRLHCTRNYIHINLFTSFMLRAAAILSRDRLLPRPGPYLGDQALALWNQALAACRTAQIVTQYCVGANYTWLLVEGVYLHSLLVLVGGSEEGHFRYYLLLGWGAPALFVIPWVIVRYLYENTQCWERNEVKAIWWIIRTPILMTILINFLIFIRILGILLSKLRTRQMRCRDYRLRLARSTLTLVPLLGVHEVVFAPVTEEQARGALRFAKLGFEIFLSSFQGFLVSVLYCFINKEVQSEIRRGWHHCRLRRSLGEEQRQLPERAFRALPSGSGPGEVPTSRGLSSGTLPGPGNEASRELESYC
Assay: cell-based or functional assay
Kindly state cAMP Rel EC50, nM (in the presence of 1% HSA) for each of the entries shown.
Numbers only, in nM.

# annotated cases, reported cAMP Rel EC50, nM (in the presence of 1% HSA) shown
- binder: "YXQGTFTSDFSXXLDKKAQXAFIEYLLEGGPSSGAPPPSEG (synthetic construct; SITE 2: note = 2-Aminoisobutyric Acid; SITE 12: note = L-ornithine; SITE 13: note = alpha-methyl-leucine; SITE 17: note = Lysine is chemically modified through conjugation of the epsilon-amino group of the Lysine side chain with (2-[2-(2-Amino-ethoxy)-ethoxy]-acetyl)-(gamma-Glu)) [Example 50]"
  units.label: "nM"
  reported: 69.6
- binder: "YXQGTFTSDFSXXLDKKAQXAFIEWLLEGGHSSGEPPPSGE (synthetic construct; SITE 2: note = 2-Aminoisobutyric Acid; SITE 12: note = L-ornithine; SITE 13: note = alpha-methyl-leucine; SITE 17: note = Lysine is chemically modified through conjugation of the epsilon-amino group of the Lysine side chain with (2-[2-(2-Amino-ethoxy)-ethoxy]-acetyl)-(gamma-Glu)) [Example 124]"
  units.label: "nM"
  reported: 54.7

Below: the item to evaluate.
According to the records, this binder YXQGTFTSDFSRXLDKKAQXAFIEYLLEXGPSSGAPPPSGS (synthetic construct; SITE 2: note = 2-Aminoisobutyric Acid; SITE 13: note = alpha-methyl-leucine; SITE 17: note = Lysine is chemically modified through conjugation of the epsilon-amino group of the Lysine side chain with (2-[2-(2-Amino-ethoxy)-ethoxy]-acetyl)-(gamma-Glu)-CO-(CH2) 16-CO2H; SITE 20: n) [Example 79] displays cAMP Rel EC50, nM (in the presence of 1% HSA) of 14.3
